Recorded values, source the Human Domainome abundance scans (Beltran et al. 2025).

B1: Kinesin-like protein KIF16B, residues 1213 to 1273; numbered along this chain, Q96L93 (parent)
chain: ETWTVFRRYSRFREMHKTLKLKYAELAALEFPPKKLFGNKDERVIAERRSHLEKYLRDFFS

variants of: B1; test: abundance fitness (aPCA) (normalised: wild type 0, dead -1); higher = more abundant; growth selection in yeast, the domain comes from the species named; settings: Homo sapiens

{"columns": ["Chain", "abundance fitness"],
 "data": [
  ["ETWTVQRRYSRFREMHKTLKLKYAELAALEFPPKKLFGNKDERVIAERRSHLEKYLRDFFS [F6Q]", -0.402],
  ["ETWTVFRRYSRFREMHKTLKLKYAELAALEFPPKKLAGNKDERVIAERRSHLEKYLRDFFS [F37A]", -0.451],
  ["ETWTVFRRYSRFREMHKTLKLKYAELAALEFPPKKLFGNKDERVIAERRSHLEKYLRKFFS [D58K]", 0.241],
  ["ETWTVFRRYSRFSEMHKTLKLKYAELAALEFPPKKLFGNKDERVIAERRSHLEKYLRDFFS [R13S]", -0.137],
  ["ETWTVFRRYSRFREMHKTLKLKYAELAALQFPPKKLFGNKDERVIAERRSHLEKYLRDFFS [E30Q]", 0.036],
  ["ETWTVFRRYSRFREMHKTLKLKYAELAALEFPPKKLFGNKDERVIAEPRSHLEKYLRDFFS [R48P]", 0.113],
  ["ETWTVFRRYSRFREMHKTLQLKYAELAALEFPPKKLFGNKDERVIAERRSHLEKYLRDFFS [K20Q]", -0.411],
  ["ETWTVFRRYSRFREMHKTLKLKYAELAASEFPPKKLFGNKDERVIAERRSHLEKYLRDFFS [L29S]", -0.513],
  ["ETWTVFRRYSRFREMHKTLKLKYAELAALEFTPKKLFGNKDERVIAERRSHLEKYLRDFFS [P32T]", 0.069],
  ["ETWTVFRRYSRFREMHKTLKYKYAELAALEFPPKKLFGNKDERVIAERRSHLEKYLRDFFS [L21Y]", -0.477],
  ["ETWTVFRRYSRFREMHKTLKLKYAELAALEFPPKKLFGNKDERVIAERRSHLMKYLRDFFS [E53M]", 0.309],
  ["ETWTVFRRYSRFREMHKTLKLKYAELAALEFPPKKLFGNKDERVIAERRLHLEKYLRDFFS [S50L]", -0.042],
  ["ETWTVFRRYSRFREMHKTPKLKYAELAALEFPPKKLFGNKDERVIAERRSHLEKYLRDFFS [L19P]", -1.02],
  ["ETWTVFRRYSRFREMHKTLKLKYAELAALEFPPKKLFGNKDERVIATRRSHLEKYLRDFFS [E47T]", 0.132],
  ["ETWTVFRRYSRFREMHKDLKLKYAELAALEFPPKKLFGNKDERVIAERRSHLEKYLRDFFS [T18D]", -0.806],
  ["ETWTVFLRYSRFREMHKTLKLKYAELAALEFPPKKLFGNKDERVIAERRSHLEKYLRDFFS [R7L]", -0.025],
  ["ETWTVFRSYSRFREMHKTLKLKYAELAALEFPPKKLFGNKDERVIAERRSHLEKYLRDFFS [R8S]", 0.12],
  ["ETWTVFRRYSRFREMHKTLKLKYAELAALEFDPKKLFGNKDERVIAERRSHLEKYLRDFFS [P32D]", -0.082],
  ["ETWTVFRRYSRIREMHKTLKLKYAELAALEFPPKKLFGNKDERVIAERRSHLEKYLRDFFS [F12I]", 0.068],
  ["ETWTQFRRYSRFREMHKTLKLKYAELAALEFPPKKLFGNKDERVIAERRSHLEKYLRDFFS [V5Q]", -0.093],
  ["ETWTVFRRYSRFREMHKTLKLKKAELAALEFPPKKLFGNKDERVIAERRSHLEKYLRDFFS [Y23K]", -0.803],
  ["ETWTVFRRYSRFRQMHKTLKLKYAELAALEFPPKKLFGNKDERVIAERRSHLEKYLRDFFS [E14Q]", -0.534]
]}
